system: MEK6; construct: gene MAP2K6; conditions: concentration: 1 μM, replicates: in singlicate; n = 1;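 also: KINOMEscan kinase panel screen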
measurementName: %Inh (%)
Dear colleague, please return just the value in %, with no unit written.

Cc1c(Cn2c(C)c(C)n3c(=O)cc(N4CCOCC4)nc23)cccc1C(F)(F)F    0
CNCc1ccc2nc(NC(=O)c3ccc(C(C)(C)C)cc3)cn2c1    11
COc1ccc(-c2coc3ccc(-c4nnc(C)o4)cc23)cc1    0
COC(=O)c1cccc(NC(=O)NC2CCN(c3ccnc(Nc4ccc(OC)cc4)n3)C2)c1 (centres unmarked)    0

Consider now this further compound.
Req: # get_value(readout='%Inh', item= CC(C)c1cc(-c2ccc3c(N)n[nH]c3c2)nc(N)n1 )
Resp: 5

* * *

Listed compounds paired with reported %Inh
system: CDK4; conditions: concentration: 1 μM, replicates: in singlicate; n = 1
Note: unit % is implicit; provide only the numeric part.

Reference set, count: 6
CSc1ccc(-c2nc3n(c2-c2ccncc2)CCC3)cc1    27
Nc1ncnc2occ(-c3ccc4c(c3)CCN4C(=O)Cc3cc(F)ccc3F)c12    18
CNc1cc(-c2ccc3c(N)n[nH]c3c2)nc(N)n1    18
COc1ccc(Nc2nccc(N3CCC(NC(=O)C(C)c4ccc(Cl)cc4)C3)n2)cc1 (stereo not drawn)    23
O=C(Nc1n[nH]c2cc(-c3ccsc3)ccc12)C1CC1    86
Fc1ccc(-c2nc[nH]c2-c2ccncc2)cc1    15

Req: Dear colleague, I am looking for the recorded %Inh of the following compound: CNc1nc(-c2ccc3c(N)n[nH]c3c2)cc(N2C[C@@H](C(=O)Nc3ccccc3)CC[C@H]2C)n1
Resp: 25

Req: Fill in: %Inh of Cc1ccc(NC(=O)Nc2ccc(Cl)cc2)cc1-c1ccc(C(=O)Nc2ccncc2)cc1 is ___
Resp: 2

Req: Requested read-out: %Inh. Entry: Cl.Cl.Cl.N#Cc1ccc(CCNc2nccc(-c3cccc(CN4CCNCC4)c3)n2)cc1
Resp: 0

* * *

system: SRMS; settings: concentration: 1 μM, replicates: in singlicate; n = 1
measurementName: %Inh (%)
Your answer should be a plain number; it is taken to be in %.

Illustrative cases are given below, each with its answer.
O=C(Nc1n[nH]c2nc(-c3ccco3)c(Br)cc12)C1CCN(Cc2ccccc2)C1.O=C(O)[C@H](O)[C@@H](O)C(=O)O (stereo not shown)    17
Fc1ccc(-c2nn3cccc(F)c3c2-c2ccncc2)cc1    0
COc1ccc(CSc2nnc(-c3ccc4c(c3)CCO4)o2)cc1    0

Note: attention shifts to another entry.
Req: Query (compound): COc1ccc(CSc2nnc(-c3ccc4nccn4c3)o2)cc1C(F)(F)F ; field requested: %Inh
Resp: 3

* * *

system: ADCK4; conditions: concentration: 1 μM, replicates: in singlicate; n = 1
measurementName: %Inh (%)
Note: unit % is implicit; provide only the numeric part.

Examples with their reported %Inh follow.
O=c1cc(N2CCOCC2)nc2n(Cc3ccccc3F)ccn12 [GSK2297428]    8
COc1ccc(Nc2nccc(N3CCC(NC(=O)C(C)c4ccc(Cl)cc4)C3)n2)cc1 (stereo not shown) [GSK1379735]    17
Fc1ccc(-c2nc3n(c2-c2ccncc2)CCS3)cc1 [GI98581]    23
CS(=O)(=O)Cc1ccc(Nc2nccc(-c3c(-c4cccc(NC(=O)C5CCCCC5)c4)nn4ncccc34)n2)cc1 [GSK350559]    0
c1ccc(-c2ccnc3[nH]ccc23)cc1 [SB-693578]    40
CCc1ccc(-c2ccc3c(c2)-c2n[nH]cc2S(=O)(=O)N3C)cc1    0

Note: attention shifts to another entry.
Req: # %Inh lookup, item O=C(Nc1n[nH]c2nc(-c3cccs3)c(Br)cc12)C1CC1 [SB-735297]
Resp: 0
